Test description: Single ascending dose pharmacokinetics of intravenous CN-105 in healthy adults
Test settings: human, plasma, iv, 1 mg/kg
Where a SMILES comes first, the peptide text is derived from it.
Measurement label: Vd

1. CC(=O)N[C@H](C(=O)N[C@@H](CO)C(=O)N[C@@H](CCCNC(=N)N)C(=O)N[C@@H](CCCNC(=N)N)C(=O)N[C@@H](CCCNC(=N)N)C(N)=O)C(C)C [CN-105] (Ac-VSRRR-NH2; N-terminus and C-terminus assumed) = 38.4 L

---

Test description: Single ascending dose pharmacokinetics of intravenous CN-105 in healthy adults
Test settings: human, plasma, iv, 1 mg/kg
Where a SMILES comes first, the peptide text is derived from it.
Measurement label: Cmax (ng/mL)

1) CC(=O)N[C@H](C(=O)N[C@@H](CO)C(=O)N[C@@H](CCCNC(=N)N)C(=O)N[C@@H](CCCNC(=N)N)C(=O)N[C@@H](CCCNC(=N)N)C(N)=O)C(C)C [CN-105] (Ac-VSRRR-NH2; N-terminus and C-terminus assumed) = 3940

---

Test description: Single ascending dose pharmacokinetics of intravenous CN-105 in healthy adults
Test settings: human, plasma, iv, 0.03 mg/kg
Where a SMILES comes first, the peptide text is derived from it.
Measurement label: Vd (L)

1) CC(=O)N[C@H](C(=O)N[C@@H](CO)C(=O)N[C@@H](CCCNC(=N)N)C(=O)N[C@@H](CCCNC(=N)N)C(=O)N[C@@H](CCCNC(=N)N)C(N)=O)C(C)C [CN-105] (Ac-VSRRR-NH2; N-terminus and C-terminus assumed) = 30.4

---

Test description: Single ascending dose pharmacokinetics of intravenous CN-105 in healthy adults
Test settings: human, plasma, iv, 1 mg/kg
Where a SMILES comes first, the peptide text is derived from it.
Measurement label: AUC(0-inf) (ng·h/mL)

1) CC(=O)N[C@H](C(=O)N[C@@H](CO)C(=O)N[C@@H](CCCNC(=N)N)C(=O)N[C@@H](CCCNC(=N)N)C(=O)N[C@@H](CCCNC(=N)N)C(N)=O)C(C)C [CN-105] (Ac-VSRRR-NH2; N-terminus and C-terminus assumed) = 9550

---

Test description: Single ascending dose pharmacokinetics of intravenous CN-105 in healthy adults
Test settings: human, plasma, iv, 1 mg/kg
Where a SMILES comes first, the peptide text is derived from it.
Measurement label: clearance (mL/min)

1) CC(=O)N[C@H](C(=O)N[C@@H](CO)C(=O)N[C@@H](CCCNC(=N)N)C(=O)N[C@@H](CCCNC(=N)N)C(=O)N[C@@H](CCCNC(=N)N)C(N)=O)C(C)C [CN-105] (Ac-VSRRR-NH2; N-terminus and C-terminus assumed) = 128

---

Test description: Single ascending dose pharmacokinetics of intravenous CN-105 in healthy adults
Test settings: human, plasma, iv, 0.1 mg/kg
Where a SMILES comes first, the peptide text is derived from it.
Measurement label: Vd (L)

1. CC(=O)N[C@H](C(=O)N[C@@H](CO)C(=O)N[C@@H](CCCNC(=N)N)C(=O)N[C@@H](CCCNC(=N)N)C(=O)N[C@@H](CCCNC(=N)N)C(N)=O)C(C)C [CN-105] (Ac-VSRRR-NH2; N-terminus and C-terminus assumed) = 38.9

---

Test description: Single ascending dose pharmacokinetics of intravenous CN-105 in healthy adults
Test settings: human, plasma, iv, 0.3 mg/kg
Where a SMILES comes first, the peptide text is derived from it.
Measurement label: Vd (L)

1) CC(=O)N[C@H](C(=O)N[C@@H](CO)C(=O)N[C@@H](CCCNC(=N)N)C(=O)N[C@@H](CCCNC(=N)N)C(=O)N[C@@H](CCCNC(=N)N)C(N)=O)C(C)C [CN-105] (Ac-VSRRR-NH2; N-terminus and C-terminus assumed) = 45.6
